# tgt: UniProtKB P10635
# Sequence (P10635 whole entry): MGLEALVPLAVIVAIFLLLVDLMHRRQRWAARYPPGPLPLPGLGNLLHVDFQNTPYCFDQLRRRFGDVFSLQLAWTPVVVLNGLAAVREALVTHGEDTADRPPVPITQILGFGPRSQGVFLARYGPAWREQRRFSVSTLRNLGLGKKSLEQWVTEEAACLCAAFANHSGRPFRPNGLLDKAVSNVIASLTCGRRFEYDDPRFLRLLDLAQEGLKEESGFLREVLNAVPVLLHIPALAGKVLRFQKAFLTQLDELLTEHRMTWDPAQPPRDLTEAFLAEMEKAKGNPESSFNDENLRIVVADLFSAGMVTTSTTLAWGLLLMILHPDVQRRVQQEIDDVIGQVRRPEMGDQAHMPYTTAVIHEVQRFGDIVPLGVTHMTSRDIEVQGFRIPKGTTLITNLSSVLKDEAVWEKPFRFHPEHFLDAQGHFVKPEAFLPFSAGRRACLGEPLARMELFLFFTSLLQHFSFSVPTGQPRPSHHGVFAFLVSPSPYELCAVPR
# protocol-text: CYP2D6 inhibition in HLMs (dextromethorphan)
# condition-notes: IC50 TDI, 30 min pre-incubation with NADPH generating system
outcome-measure: IC50

COc1cc2c(c(OC)c1OC)-c1c(cc3c(c1OC)OCO3)C[C@H](C)[C@H](C)C2: > 50 µM
COc1cc2c(c(OC)c1OC)-c1c(cc3c(c1OC)OCO3)C[C@H](C)[C@](C)(O)[C@H]2OC(=O)c1ccccc1: > 50 µM
COc1c2c(cc3c1-c1c(cc4c(c1OC)OCO4)C[C@H](C)[C@H](C)C3)OCO2: 28.2 µM

Please find the next molecule below.
QUERY: Quick one: IC50 for COc1cc2c(c(OC)c1OC)-c1c(cc(OC)c(OC)c1OC)C[C@](C)(O)[C@@H](C)C2 ?
RESULT: > 50 µM
